Overview of recorded Stability (Arbitrary units) Mouse 24 h for various compounds
Test: Stability of compounds in mouse blood plasma
Format: in vitro ADME
Square brackets hold non-standard residues; d marks the D form. Peptide text beside a SMILES is read from it. * marks the point of attachment. Gly(1-amidinopiperidin-4-yl) = N=C(N)N1CCC([C@H](N)C(=O)O)CC1; Tetrahydroisoquinolin(2-yl) = c1ccc2c(c1)CCN(*)C2; N(Me)CH2CH2Ph = CN(CCc1ccccc1)*; Tic = O=C(O)[C@@H]1Cc2ccccc2CN1; Cha = N[C@@H](CC1CCCCC1)C(=O)O; Nle = CCCC[C@H](N)C(=O)O; X3 = OCCOCCN*

Some solved cases for reference:
Given item CCCC[C@H](NC(=O)[C@@H]1Cc2ccccc2CN1C(=O)[C@@H](NC(=O)[C@H](CC1CCCCC1)NC(C)=O)C1CCN(C(=N)N)CC1)C(=O)N1CCc2ccccc2C1 [Compound P77] (Ac-[Cha][Gly(1-amidinopiperidin-4-yl)][Tic][Nle]-{Tetrahydroisoquinolin(2-yl)}) , the value recorded as its Stability (Arbitrary units) Mouse 24 h is 181 Arbitrary units

Given item CCCC[C@H](NC(=O)[C@@H]1Cc2ccccc2CN1C(=O)[C@H](CCCNC(=N)N)NC(=O)[C@H](CC1CCCCC1)NC(C)=O)C(=O)N(C)CCc1ccccc1 [Compound P83, Ac-Cha-Arg-Tic-Nle-N(Me)CH2CH2Ph] (Ac-[Cha]R[Tic][Nle]-{N(Me)CH2CH2Ph}) , the value recorded as its Stability (Arbitrary units) Mouse 24 h is 58 Arbitrary units

Given item CCCC[C@H](NC(=O)[C@@H]1Cc2ccccc2CN1C(=O)[C@@H](NC(=O)[C@H](CC1CCCCC1)NC(C)=O)C1CCN(C(=N)N)CC1)C(=O)NCCOCCO [Compound P70, Ac-Cha-Gpg-Tic-Nle-N(H)CH2CH2OCH2CH2OH] (Ac-[Cha][Gly(1-amidinopiperidin-4-yl)][Tic][Nle]-X3) , the value recorded as its Stability (Arbitrary units) Mouse 24 h is 82 Arbitrary units

Next compound, please.
Given item CSCC[C@H](NC(=O)[C@@H]1Cc2ccccc2CN1C(=O)[C@H](CCCNC(=N)N)NC(=O)[C@H](CC1CCCCC1)NC(C)=O)C(N)=O [Compound P1, Ac-Cha-Arg-Tic-Met-NH2] (Ac-[Cha]R[Tic]M-NH2) , the value recorded as its Stability (Arbitrary units) Mouse 24 h is 5 Arbitrary units

###

Target: Priess (DR4Dw4: DRA1*0101 DRB1*0401) cells (Homo sapiens, UniProt P01903+P01911, A100K/A169T/F76Y/I96L/K127E/L162R/M171V/N62H/P40V/Q125Y/R42H/S133A/S149N/S66Y/V115G/V209L/W38E)
Construct: MHC II Proteins Expressed on PRIESS and LG2 Cells; endogenous in cells; host or cells: Priess cells
Test: Competitive binding to MHC II proteins expressed on Priess cells
Assay type: cell-based
Numbered stars: 1 amine (or outer) side, 2 acyl side, 3 side chain; on linkers, the order of the positions; unused ones are H or OH. Square brackets hold non-standard residues; d marks the D form. Peptide text beside a SMILES is read from it. Gly(1-amidinopiperidin-4-yl) = N=C(N)N1CCC([C@H](N)C(=O)O)CC1; X1 = CC(C)c1oc([C@H](CO)N[*:1])nc1C(=O)[*:2]; Pro(3R-Ph) = O=C(O)[C@H]1NCC[C@@H]1c1ccccc1; Tic = O=C(O)[C@@H]1Cc2ccccc2CN1; Cha = N[C@@H](CC1CCCCC1)C(=O)O
Overview of recorded pIC50 for various compounds
pIC50 here: minus log base 10 of the concentration, concentration in moles per litre.

Some solved cases for reference:
Given item CSCC[C@H](NC(=O)[C@@H]1Cc2ccccc2CN1C(=O)[C@@H](NC(=O)[C@H](CC1CCCCC1)NC(C)=O)C1CCN(C(=N)N)CC1)C(=O)N1CC[C@H](c2ccccc2)[C@H]1C(N)=O [Compound P80, Ac-Cha-Gpg-Tic-Met-βPhProNH2] (Ac-[Cha][Gly(1-amidinopiperidin-4-yl)][Tic]M[Pro(3R-Ph)]-NH2) , the value recorded as its pIC50 is 5.57

Given item CSCC[C@H](NC(=O)[C@@H]1Cc2ccccc2CN1C(=O)[C@@H](NC(=O)[C@H](CC1CCCCC1)NC(C)=O)C1CCN(C(=N)N)CC1)C(N)=O [Compound P67, Ac-Cha-Gpg-Tic-Met-NH2] (Ac-[Cha][Gly(1-amidinopiperidin-4-yl)][Tic]M-NH2) , the value recorded as its pIC50 is 5.35

Next compound, please.
Given item CSCC[C@H](NC(=O)[C@@H]1Cc2ccccc2CN1C(=O)[C@H](CCCNC(=N)N)NC(=O)[C@H](CC1CCCCC1)NC(C)=O)C(=O)N1CC[C@H](c2ccccc2)[C@H]1C(=O)N[C@@H](CO)c1nc(C(=O)N(C)C)c(C(C)C)o1 [Compound P33] (Ac-[Cha]R[Tic]M[Pro(3R-Ph)][X1]-NMe2) , the value recorded as its pIC50 is 5.49
